# Tested on: Enterococcus faecalis
# protocol description: Antibacterial activity against Enterococcus faecalis ATCC 14506 by broth microdilution method
# Type: functional
observed property: MIC (µg/mL)
The reply should contain only the number, in µg/mL.

{"columns": ["query smiles", "units of measure", "MIC"],
 "data": [
  ["CC(=O)NC[C@H]1CN(c2ccc(N(C)C3CCN(C(=O)/C=C/C4CCCCC4)CC3)c(F)c2)C(=O)O1", "µg/mL", 8]
]}

Shifting focus to the compound that follows.
Fill blank: measured MIC of the compound `CC(=O)NC[C@H]1CN(c2ccc(N3CCN(Cc4ccc([N+](=O)[O-])o4)CC3)c(F)c2)C(=O)O1` is ____. 2

====

# Test system: Staphylococcus aureus
# protocol description: Antibacterial activity against Staphylococcus aureus ATCC 33592 by broth microdilution method
# Type: functional
# reported MIC; entries follow

{"columns": ["query smiles", "MIC"],
 "data": [
  ["CC(=O)NC[C@H]1CN(c2ccc(N(C)C3CCN(C(=O)/C=C/c4ccc([N+](=O)[O-])cc4)CC3)c(F)c2)C(=O)O1", "> 16 µg/mL"],
  ["CC(=O)NC[C@H]1CN(c2ccc(N(C)C3CCN(C(=O)/C=C/c4c[nH]c5ccccc45)CC3)c(F)c2)C(=O)O1", "> 16 µg/mL"],
  ["CC(=O)NC[C@H]1CN(c2ccc(N(C)C3CCNCC3)c(F)c2)C(=O)O1", "> 16 µg/mL"]
]}

Consider the compound shown here: `CC(=O)NC[C@H]1CN(c2ccc(N(C)C3CCN(C(=O)/C=C/c4ccc(O)cc4)CC3)c(F)c2)C(=O)O1` What is its recorded MIC? > 16 µg/mL

====

# MIC values compiled below
# System: Staphylococcus epidermidis
# protocol description: Antibacterial activity against Staphylococcus epidermidis ATCC 12228 by broth microdilution method
# Assay type: functional

Which MIC is reported for this compound? `CC(=O)NC[C@H]1CN(c2ccc(N(C)C3CCNCC3)c(F)c2)C(=O)O1` > 16 µg/mL

Reported MIC for `CC(=O)NC[C@H]1CN(c2ccc(N3CCN(Cc4ccc([N+](=O)[O-])o4)CC3)c(F)c2)C(=O)O1` : what is it? 0.5 µg/mL

If you can, please state the reported MIC value of `CC(=O)NC[C@H]1CN(c2ccc(N(C)C3CCN(C(=O)/C=C/c4ccccc4)CC3)c(F)c2)C(=O)O1` . 8 µg/mL

Need MIC, item `CC(=O)NC[C@H]1CN(c2ccc(N(C)C3CCN(C(=O)/C=C/c4ccc(CO)o4)CC3)c(F)c2)C(=O)O1` > 16 µg/mL

Entry under review: `CC(=O)NC[C@H]1CN(c2ccc(N(C)C3CCN(C(=O)/C=C/c4ccc([N+](=O)[O-])cc4)CC3)c(F)c2)C(=O)O1` . Reported MIC? 8 µg/mL

Looking for the measured MIC of `CC(=O)NC[C@H]1CN(c2ccc(N(C)C3CCN(C(=O)/C=C/c4c[nH]c5ccccc45)CC3)c(F)c2)C(=O)O1` , can you help? 4 µg/mL
